Biological target: hSTING-R232 (Homo sapiens (Human), UniProt Q86WV6, H232R)
Sequence (Q86WV6 140-379 H232R): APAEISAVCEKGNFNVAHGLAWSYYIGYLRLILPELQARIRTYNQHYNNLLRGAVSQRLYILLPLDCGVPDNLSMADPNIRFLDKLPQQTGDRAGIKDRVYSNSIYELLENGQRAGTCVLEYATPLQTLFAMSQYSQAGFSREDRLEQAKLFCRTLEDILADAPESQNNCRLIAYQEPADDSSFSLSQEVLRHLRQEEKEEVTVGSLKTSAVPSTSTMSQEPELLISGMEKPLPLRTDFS
Assay: STING differential scanning fluorimetry (DSF) assay, WT human STING
Details: WT (R232) human STING aa140-379, net shift in melting temperature
Endpoint Label: WT_DSF_hSWAT Tm Shift (° C.)

// known answers, use as guide
Task: Dear colleague, I am looking for the recorded WT_DSF_hSWAT Tm Shift (° C.) of the following compound: COc1cc(Cl)c(OC)c2c1c(=O)c1ccccc1n2CC(=O)O
Output: B (“B” = 0-2° C.)

Task: Dear colleague, I am looking for the recorded WT_DSF_hSWAT Tm Shift (° C.) of the following compound: CC(C)c1ccc2c(=O)c3ccc(Cl)c(Cl)c3n(C)c2c1
Output: B (“B” = 0-2° C.)

Task: Dear colleague, I am looking for the recorded WT_DSF_hSWAT Tm Shift (° C.) of the following compound: Cc1ccc(-c2ccc3c(=O)c4ccc(Cl)c(Cl)c4n(CC(=O)O)c3c2)cc1Cl
Output: B (“B” = 0-2° C.)

Task: Dear colleague, I am looking for the recorded WT_DSF_hSWAT Tm Shift (° C.) of the following compound: COc1c(Cl)ccc2c(=O)c3ccc(-c4cccc(C)c4)cc3n(CC(=O)O)c12
Output: D (“D” > 7° C.)

Task: Dear colleague, I am looking for the recorded WT_DSF_hSWAT Tm Shift (° C.) of the following compound: COc1c(Cl)ccc2c(=O)c3ccc(C)cc3n(CC(=O)NC#N)c12
Output: C (“C” = 2-7° C,)

Task: Dear colleague, I am looking for the recorded WT_DSF_hSWAT Tm Shift (° C.) of the following compound: O=C(O)Cn1c2cc(C(F)(F)F)ccc2c(=O)c2ccc(Cl)c(Cl)c21
Output: B (“B” = 0-2° C.)

Next:
Task: Dear colleague, I am looking for the recorded WT_DSF_hSWAT Tm Shift (° C.) of the following compound: CC(C)Sc1c(Cl)ccc2c(=O)c3ccc(C(C)(C)C)cc3n(CC(=O)O)c12
Output: D (“D” > 7° C.)

Task: Dear colleague, I am looking for the recorded WT_DSF_hSWAT Tm Shift (° C.) of the following compound: COc1c(Cl)ccc2c(=O)c3ccc(SC(C)C)cc3n(CC(=O)O)c12
Output: D (“D” > 7° C.)

###

Target: mSTING-R232 (Mus musculus)
Test: STING differential scanning fluorimetry (DSF) assay, mouse STING
Settings: net shift in melting temperature
Endpoint Label: MOUSE DSF_6xHIS-SUMO Tm Shift (° C.)

// known answers, use as guide
Task: Dear colleague, I am looking for the recorded MOUSE DSF_6xHIS-SUMO Tm Shift (° C.) of the following compound: COc1c(Cl)ccc2c(=O)c3ccc(Nc4cnccn4)cc3n(CC(=O)O)c12
Output: D (“D” > 15° C.)

Task: Dear colleague, I am looking for the recorded MOUSE DSF_6xHIS-SUMO Tm Shift (° C.) of the following compound: COc1c(Cl)ccc2c(=O)c3ccc(-c4ccc(N)cc4)cc3n(CC(=O)O)c12
Output: D (“D” > 15° C.)

Task: Dear colleague, I am looking for the recorded MOUSE DSF_6xHIS-SUMO Tm Shift (° C.) of the following compound: Cc1ccc2c(=O)c3ccc(Cl)c(Br)c3n(CC(=O)O)c2c1
Output: C (“C” = 5-15° C.)

Task: Dear colleague, I am looking for the recorded MOUSE DSF_6xHIS-SUMO Tm Shift (° C.) of the following compound: COc1cc2c(=O)c3ccc(Cl)c(OC)c3n(CC(=O)O)c2cc1C(C)C
Output: B (“B” = 0-5° C.)

Task: Dear colleague, I am looking for the recorded MOUSE DSF_6xHIS-SUMO Tm Shift (° C.) of the following compound: CN(Cc1ccccc1)c1c(Cl)ccc2c(=O)c3ccccc3n(CC(=O)O)c12
Output: A (“A” < 0° C.)

Next:
Task: Dear colleague, I am looking for the recorded MOUSE DSF_6xHIS-SUMO Tm Shift (° C.) of the following compound: CC1CCC(Nc2ccc3c(=O)c4ccc(Cl)c(Cl)c4n(CC(=O)O)c3c2)CC1 (stereo not drawn)
Output: D (“D” > 15° C.)

Task: Dear colleague, I am looking for the recorded MOUSE DSF_6xHIS-SUMO Tm Shift (° C.) of the following compound: O=C(O)Cn1c2cc(Nc3ccc(F)cc3)ccc2c(=O)c2ccc(Cl)c(Cl)c21
Output: D (“D” > 15° C.)

Task: Dear colleague, I am looking for the recorded MOUSE DSF_6xHIS-SUMO Tm Shift (° C.) of the following compound: CC1(C)CCCC(c2ccc3c(=O)c4ccc(Cl)c(Cl)c4n(CC(=O)O)c3c2)C1 (stereo not drawn)
Output: D (“D” > 15° C.)

Task: Dear colleague, I am looking for the recorded MOUSE DSF_6xHIS-SUMO Tm Shift (° C.) of the following compound: C=CCOc1c(Cl)ccc2c(=O)c3ccc(C)cc3n(CC(=O)O)c12
Output: C (“C” = 5-15° C.)

Task: Dear colleague, I am looking for the recorded MOUSE DSF_6xHIS-SUMO Tm Shift (° C.) of the following compound: O=C(O)Cn1c2cc(C3CCCCC3)ccc2c(=O)c2ccc(Cl)c(Br)c21
Output: D (“D” > 15° C.)

Task: Dear colleague, I am looking for the recorded MOUSE DSF_6xHIS-SUMO Tm Shift (° C.) of the following compound: CC(C)(C)CNc1ccc2c(=O)c3ccc(Cl)c(Br)c3n(CC(=O)O)c2c1
Output: C (“C” = 5-15° C.)

Task: Dear colleague, I am looking for the recorded MOUSE DSF_6xHIS-SUMO Tm Shift (° C.) of the following compound: CC(C)c1ccc2c(=O)c3ccc(Cl)c(Br)c3n(CC(=O)O)c2c1
Output: C (“C” = 5-15° C.)

Task: Dear colleague, I am looking for the recorded MOUSE DSF_6xHIS-SUMO Tm Shift (° C.) of the following compound: COc1c(Cl)ccc2c(=O)c3ccc(-c4ccc(O)cc4)cc3n(CC(=O)O)c12
Output: D (“D” > 15° C.)

Task: Dear colleague, I am looking for the recorded MOUSE DSF_6xHIS-SUMO Tm Shift (° C.) of the following compound: COc1c(Cl)ccc2c(=O)c3ccc(SC)cc3n(CC(=O)O)c12
Output: D (“D” > 15° C.)

Task: Dear colleague, I am looking for the recorded MOUSE DSF_6xHIS-SUMO Tm Shift (° C.) of the following compound: CC(C)c1ccc2c(=O)c3ccc(Cl)c(OC[C@@H](C)O)c3n(CC(=O)O)c2c1
Output: C (“C” = 5-15° C.)

###

Molecular target: hSTING-R232 (Homo sapiens (Human), UniProt Q86WV6, H232R)
Assay: STING differential scanning fluorimetry (DSF) assay, WT human STING
Conditions: WT (R232) human STING aa140-379, net shift in melting temperature
Endpoint Label: WT_DSF_hSWAT Tm Shift (° C.)

// known answers, use as guide
Task: Dear colleague, I am looking for the recorded WT_DSF_hSWAT Tm Shift (° C.) of the following compound: O=C(O)Cn1c2ccccc2c(=O)c2ccc(Cl)c(Cl)c21
Output: B (“B” = 0-2° C.)

Task: Dear colleague, I am looking for the recorded WT_DSF_hSWAT Tm Shift (° C.) of the following compound: CN(C)c1c(Cl)ccc2c(=O)c3ccccc3n(CC(=O)O)c12
Output: D (“D” > 7° C.)

Task: Dear colleague, I am looking for the recorded WT_DSF_hSWAT Tm Shift (° C.) of the following compound: O=C(O)Cn1c2cc(-c3ccccc3)ccc2c(=O)c2ccc(Cl)c(Br)c21
Output: C (“C” = 2-7° C,)

Task: Dear colleague, I am looking for the recorded WT_DSF_hSWAT Tm Shift (° C.) of the following compound: CN(C)c1c(Cl)ccc2c(=O)c3ccc(Nc4ccccc4)cc3n(CC(=O)O)c12
Output: D (“D” > 7° C.)

Next:
Task: Dear colleague, I am looking for the recorded WT_DSF_hSWAT Tm Shift (° C.) of the following compound: COc1c(Cl)ccc2c(=O)c3ccc(-c4ccc(N)cc4)cc3n(CC(=O)O)c12
Output: D (“D” > 7° C.)

Task: Dear colleague, I am looking for the recorded WT_DSF_hSWAT Tm Shift (° C.) of the following compound: O=C(O)Cn1c2cc(C3CCCCC3)ccc2c(=O)c2ccc(Cl)c(Br)c21
Output: D (“D” > 7° C.)

Task: Dear colleague, I am looking for the recorded WT_DSF_hSWAT Tm Shift (° C.) of the following compound: Cc1ccc2c(=O)c3ccc(Cl)c(OCC4CC4)c3n(CC(=O)O)c2c1
Output: C (“C” = 2-7° C,)

Task: Dear colleague, I am looking for the recorded WT_DSF_hSWAT Tm Shift (° C.) of the following compound: COc1c(Cl)ccc2c(=O)c3ccc(-c4cccc(N)c4)cc3n(CC(=O)O)c12
Output: D (“D” > 7° C.)

Task: Dear colleague, I am looking for the recorded WT_DSF_hSWAT Tm Shift (° C.) of the following compound: CCS(=O)(=O)NC(=O)Cn1c2cc(C)ccc2c(=O)c2ccc(Cl)c(OC)c21
Output: C (“C” = 2-7° C,)

Task: Dear colleague, I am looking for the recorded WT_DSF_hSWAT Tm Shift (° C.) of the following compound: O=C(O)Cn1c2cc(C3CCC(O)CC3)ccc2c(=O)c2ccc(Cl)c(Cl)c21 (centres unmarked) [Compound 264]
Output: C (“C” = 2-7° C,)

Task: Dear colleague, I am looking for the recorded WT_DSF_hSWAT Tm Shift (° C.) of the following compound: CSc1c(Cl)ccc2c(=O)c3ccc(Nc4ccc(F)cc4)cc3n(CC(=O)O)c12
Output: D (“D” > 7° C.)

Task: Dear colleague, I am looking for the recorded WT_DSF_hSWAT Tm Shift (° C.) of the following compound: COc1c(Cl)ccc2c(=O)c3ccc(Nc4ccc(OC(F)(F)F)cc4)cc3n(CC(=O)O)c12
Output: D (“D” > 7° C.)

Task: Dear colleague, I am looking for the recorded WT_DSF_hSWAT Tm Shift (° C.) of the following compound: CSc1c(Cl)ccc2c(=O)c3ccc(Br)cc3n(CC(=O)O)c12
Output: D (“D” > 7° C.)
